experiment: qHTS assay to identify small molecule antagonists of the estrogen related receptor (ERR) signaling pathway from Tox21 library (AID 1224848); conditions: ERR reporter cell line, luciferase antagonist mode, 18 h; series mostly up to 92.4 µM; further: nearly all actives have a fitted effect of over 50% in size
Results filed as inconclusive are left out. The source made the active and inactive calls. The call rests on the fitted dose curve; in most records, active means well fitted inhibition curve with a large enough effect in the repeat runs; inconclusive means weak or mixed curves; inactive means no such curve, though single readings can be large or run the other way.
API: response.call in active, inactive

Problem: Any idea what this test logged for COc1ccc(CN2CCN(C(c3ccc(F)cc3)c3ccc(F)cc3)CC2)c(OC)c1OC ?
Solution: active

Problem: Check C=CC(=O)OCCn1c(=O)n(CCOC(=O)C=C)c(=O)n(CCOC(=O)C=C)c1=O too.
Solution: inactive

Problem: Check CC(C)n1nc(-c2cc3cc(O)ccc3[nH]2)c2c(N)ncnc21 too.
Solution: active

Problem: Check Cc1cc(=O)oc2cc(N(C)C)ccc12 too.
Solution: inactive

Problem: Check CCCCCCCCCCn1cc[n+](CCCCCCCCCC)c1C too.
Solution: active

Problem: Check CCCC(c1cc(C(C)(C)C)c(O)cc1C)c1cc(C(C)(C)C)c(O)cc1C too.
Solution: active

Problem: Check COCCCC/C(=N\OCCN)c1ccc(C(F)(F)F)cc1 too.
Solution: inactive

Problem: Check NNc1nc(-c2ccc(N)cc2)cs1 too.
Solution: active

Problem: Check CCc1cc(SCc2sc(-c3ccc(C(F)(F)F)cc3)nc2CN2CCN(c3ccc(OC)cc3)CC2)ccc1OCC(=O)O too.
Solution: active

Problem: Check CCCCCCCCCCC=O too.
Solution: inactive

Problem: Check Nc1ccc(N)c2ccccc12 too.
Solution: active

Problem: Check O=c1[nH]cnc2nc[nH]c12 too.
Solution: inactive

Problem: Check Cc1cc2c(cc1C(F)(F)F)N(C(=O)Nc1ccc(Oc3cccnc3C)nc1)CC2 too.
Solution: active

Problem: Check CCCCCCCCCCCCCCCCCC[N+](C)(C)C too.
Solution: active

Problem: Check C[n+]1cc2c3c(ccc2c2ccc4cc5c(cc4c21)OCO5)OCO3 too.
Solution: active

Problem: Check Oc1c(Cl)cc(Cl)c2cccnc12 too.
Solution: active

Problem: Check CCCN(CCC)c1c([N+](=O)[O-])cc(C(F)(F)F)c(N)c1[N+](=O)[O-] too.
Solution: active

Problem: Check O=C(O)c1ccc(Cl)c(Cl)c1 too.
Solution: inactive

Problem: Check CC/C(=C(\c1ccc(O)cc1)c1ccc(OCCN(C)C)cc1)c1ccccc1 too.
Solution: active

Problem: Check O=C(N/N=C/c1ccccc1O)c1ccncc1 too.
Solution: active

Problem: Check [O-][n+]1ccccc1SSc1cccc[n+]1[O-] too.
Solution: active

Problem: Check C[C@@H](NCCCc1cccc(C(F)(F)F)c1)c1cccc2ccccc12 too.
Solution: active

Problem: Check Cc1cccc2c1cc1ccc3cccc4ccc2c1c34 too.
Solution: inactive

Problem: Check CSc1ccc(C(=O)c2[nH]c(=O)[nH]c2C)cc1 too.
Solution: inactive

###

target: Androgen receptor (Homo sapiens) (UniProt P10275); test: qHTS assay to identify small molecule antagonists of the androgen receptor (AR) signaling pathway using the MDA cell line (AID 743042; further: nearly all actives have a fitted effect of over 55% in size); details: MDA-kb2 AR-luc, MMTV luciferase, R1881 antagonist, 16 h; series mostly up to 70.3 µM
Sequence (P10275 whole entry, looked up): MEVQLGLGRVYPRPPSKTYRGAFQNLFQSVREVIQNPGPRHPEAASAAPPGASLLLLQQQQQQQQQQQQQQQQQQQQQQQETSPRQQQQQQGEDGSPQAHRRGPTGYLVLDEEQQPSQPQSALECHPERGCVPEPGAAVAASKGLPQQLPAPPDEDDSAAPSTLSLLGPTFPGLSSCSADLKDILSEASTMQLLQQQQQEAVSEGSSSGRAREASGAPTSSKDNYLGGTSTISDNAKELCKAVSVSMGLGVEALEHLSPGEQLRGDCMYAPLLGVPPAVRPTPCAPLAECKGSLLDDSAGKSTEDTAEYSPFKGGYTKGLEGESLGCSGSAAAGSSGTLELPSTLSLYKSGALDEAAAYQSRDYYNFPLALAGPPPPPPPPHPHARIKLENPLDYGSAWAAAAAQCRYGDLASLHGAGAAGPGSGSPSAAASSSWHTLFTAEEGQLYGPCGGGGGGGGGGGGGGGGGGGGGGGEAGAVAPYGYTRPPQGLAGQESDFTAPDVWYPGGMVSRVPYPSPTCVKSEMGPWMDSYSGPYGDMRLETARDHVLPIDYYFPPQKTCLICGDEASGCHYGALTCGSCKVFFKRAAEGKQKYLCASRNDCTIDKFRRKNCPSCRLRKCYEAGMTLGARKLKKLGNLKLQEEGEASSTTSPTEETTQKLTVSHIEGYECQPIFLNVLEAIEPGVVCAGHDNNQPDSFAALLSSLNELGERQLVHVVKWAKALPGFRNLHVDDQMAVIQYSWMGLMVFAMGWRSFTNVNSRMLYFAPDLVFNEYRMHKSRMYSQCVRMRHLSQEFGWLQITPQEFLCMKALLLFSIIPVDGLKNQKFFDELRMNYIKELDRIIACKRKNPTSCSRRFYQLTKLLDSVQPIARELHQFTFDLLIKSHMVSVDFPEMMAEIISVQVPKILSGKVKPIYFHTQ
Records with an inconclusive call do not appear. Activity calls are given as the source filed them. The call rests on the fitted dose curve; in most records, active means well fitted inhibition curve with a large enough effect in the repeat runs; inconclusive means weak or mixed curves, or effect the other way; inactive means no such curve, though single readings can be large or run the other way.
API: response.call in active, inactive

Problem: Any idea what this test logged for Clc1ccc2nsnc2c1NC1=NCCN1 ?
Solution: inactive

Problem: Check CCCCC(CC)CN=C(N)NC(N)=NCCCCCCN=C(N)NC(N)=NCC(CC)CCCC (stereo not drawn) too.
Solution: active

Problem: Check CCC(C)Nc1ccc(NC(C)CC)cc1 (stereo not drawn) too.
Solution: active

Problem: Check NNc1nc(-c2ccc([N+](=O)[O-])cc2)cs1 too.
Solution: active

Problem: Check CCc1oc2ccccc2c1C(=O)c1cc(Br)c(O)c(Br)c1 too.
Solution: inactive

Problem: Check C=CC(=O)OCC(CO)(COCC(COC(=O)C=C)(COC(=O)C=C)COC(=O)C=C)COC(=O)C=C too.
Solution: active

Problem: Check Cc1cc(O)c2ccccc2c1O too.
Solution: inactive

Problem: Check Cc1cc(O)c(Cl)c(C)c1Cl too.
Solution: active

Problem: Check CC(C)OC(=O)c1cc2c(OCC(O)CNC(C)(C)C)cccc2[nH]1 (stereo not drawn) too.
Solution: inactive

Problem: Check OCCN(CCO)c1nc(N2CCCCC2)c2nc(N(CCO)CCO)nc(N3CCCCC3)c2n1 too.
Solution: inactive

Problem: Check Oc1ccc(N=Nc2ccccc2)cc1 too.
Solution: inactive

Problem: Check CCCCCCCC/C=C/CCCCCCCC1=NCCN1CCO too.
Solution: inactive

Problem: Check O=C(OCC1CO1)C1CCCCC1C(=O)OCC1CO1 (stereo not drawn) too.
Solution: inactive

###

assay: qHTS assay to identify small molecule antagonists of the vitamin D receptor (VDR) signaling pathway - cell viability counter screen (AID 743225); settings: VDR-bla HEK293T viability, CellTiter-Glo luminescence, 16 h; series mostly up to 61 µM; further: nearly all actives have a fitted effect of over 50% in size
Results filed as inconclusive are left out. Calls of active or inactive are those of the source. Calls follow the shape of the dose curve; as a rule, active = well fitted cell-killing curve with a large enough effect in the repeat runs; inconclusive = weak or mixed curves, or effect the other way; inactive = no such curve, though single readings can be large or run the other way.
API: response.call in active, inactive

Problem: Any idea what this test logged for Clc1ccccc1C(c1ccccc1)(c1ccccc1)n1ccnc1 ?
Solution: inactive

Problem: Check NC(=O)CC[C@@H]1NC(=O)[C@H](Cc2ccccc2)NC(=O)[C@H](Cc2ccc(O)cc2)NC(=O)CCSSC[C@@H](C(=O)N2CCC[C@H]2C(=O)N[C@@H](CCCN=C(N)N)C(=O)NCC(N)=O)NC(=O)[C@H](CC(N)=O)NC1=O too.
Solution: inactive

Problem: Check Cc1cc(O)c2ccccc2c1O too.
Solution: active

Problem: Check Cc1cccc(N(C)C(=S)Oc2ccc3c(c2)C2CCC3C2)c1 (stereo not given) too.
Solution: inactive

Problem: Check CCOC(=O)c1nc(C(Cl)(Cl)Cl)n(-c2ccc(Cl)cc2Cl)n1 too.
Solution: active

Problem: Check OC1(c2ccc(Cl)c(C(F)(F)F)c2)CCN(CCCC(c2ccc(F)cc2)c2ccc(F)cc2)CC1 too.
Solution: active

Problem: Check CCOc1ccc2nc3cc(N)ccc3c(N)c2c1 too.
Solution: inactive

Problem: Check O=c1cc(-c2ccc(O)cc2)oc2cc(O)cc(O)c12 too.
Solution: inactive

Problem: Check CN(C)C(=O)C1(N2CCCCC2)CCN(CC[C@@]2(c3ccc(Cl)c(Cl)c3)CN(C(=O)c3ccccc3)CCO2)CC1 too.
Solution: active

Problem: Check CCCCCCCCCCC=O too.
Solution: inactive

Problem: Check CCN1/C(=C/C=C/c2sc3ccccc3[n+]2CC)Sc2ccccc21 too.
Solution: inactive

Problem: Check CCCCCCC[N+](CC)(CC)CCCCc1ccc(Cl)cc1 too.
Solution: inactive

Problem: Check [Cl][Au]([Cl])[Cl] too.
Solution: active

Problem: Check C/C=C1/C(=O)C[C@H]2[C@@H]3CCC4=CC(=O)CC[C@]4(C)[C@H]3CC[C@]12C too.
Solution: inactive

Problem: Check O=C(OCC1CO1)C1CCCCC1C(=O)OCC1CO1 (stereo not given) too.
Solution: inactive

Problem: Check CN(C)[C@@H]1C(=O)C(C(N)=O)=C(O)[C@@]2(O)C(=O)C3=C(O)c4c(O)ccc(Cl)c4[C@@H](O)[C@H]3C[C@@H]12 too.
Solution: inactive

Problem: Check Cc1cc(=O)oc2cc(N(C)C)ccc12 too.
Solution: inactive

Problem: Check Cc1[nH]cnc1C[C@H]1CCc2c(C)c3ccccc3n2C1=O too.
Solution: inactive

Problem: Check CCCC(C)c1ccccc1O (stereo not given) too.
Solution: inactive

Problem: Check CN1CCC(Nc2ncc3ncnc(Nc4ccc(F)c(Cl)c4)c3n2)CC1 too.
Solution: active

Problem: Check N#CC1(c2ccc(F)cc2)CCC(=O)CC1 too.
Solution: inactive

Problem: Check ON=C1CCCC1 too.
Solution: inactive

Problem: Check Clc1ccc2cc3ccccc3cc2c1 too.
Solution: inactive

Problem: Check O=C(Nc1cccc(Cl)c1)OCC#CCCl too.
Solution: active

Problem: Check CCCC1O[C@@H]2C[C@H]3[C@@H]4CCC5=CC(=O)C=C[C@]5(C)[C@H]4[C@@H](O)C[C@]3(C)[C@]2(C(=O)CO)O1 (stereo not given in full) too.
Solution: inactive

###

experiment: qHTS RealTime-Glo MT Cell Viability Assay in HEK293 cells - 40 hour (AID 1224874); settings: RealTime-Glo luminescence; further: potency means the concentration at half of the fitted maximal effect; nearly all actives have a fitted effect of over 50% in size
Results filed as inconclusive are left out. Active and inactive are the calls of the source. Calls come from the whole dose curve; as a rule, active = well fitted cell-killing curve with a large enough effect in the repeat runs; inconclusive = weak or mixed curves, or effect the other way; inactive = flat fitted curve, though single readings scatter.
Kindly supply the reported Potency values for the records listed here.

Problem: Look at this molecule and give its reported Potency. Cc1c(C)c2c(c(C)c1O)CCC(C)(COc1ccc(CC3SC(=O)NC3=O)cc1)O2 (stereo unspecified)
Solution: 43.6 µM (active)

Problem: Check O=C1C=CC(=O)N1 too.
Solution: 11.3 µM (active)

Problem: Check C[C@@H](NCCCc1cccc(C(F)(F)F)c1)c1cccc2ccccc12 too.
Solution: 23.9 µM (active)

Problem: Check CCCCCCCCNC(C)C(O)c1ccc(SC(C)C)cc1 (stereo unspecified) too.
Solution: 8.49 µM (active)

Problem: Check O=C(c1ccc(F)cc1)C1CCN(CCn2c(=O)[nH]c3ccccc3c2=O)CC1 too.
Solution: 9.52 µM (active)

Problem: Check COc1ccc(-c2ccc3cc(C(=O)O)ccc3c2)cc1C12CC3CC(CC(C3)C1)C2 too.
Solution: 4.77 µM (active)

Problem: Check CCCCC(CC)CN=C(N)NC(N)=NCCCCCCN=C(N)NC(N)=NCC(CC)CCCC (stereo unspecified) too.
Solution: 4.25 µM (active)

Problem: Check N=C1N=C(N)c2cc3ccccc3cc21 too.
Solution: 32.1 µM (active)

Problem: Check CN(C)C(=O)C1(N2CCCCC2)CCN(CC[C@@]2(c3ccc(Cl)c(Cl)c3)CN(C(=O)c3ccccc3)CCO2)CC1 too.
Solution: 11.5 µM (active)

Problem: Check CCCCCCCCCOC(=O)c1ccc(O)cc1 too.
Solution: 38.3 µM (active)

Problem: Check Cc1[nH]cnc1C[C@H]1CCc2c(C)c3ccccc3n2C1=O too.
Solution: 23.9 µM (active)
